Below are pIC50 values measured for UniProt P08253.
Sequence (P08253 whole entry): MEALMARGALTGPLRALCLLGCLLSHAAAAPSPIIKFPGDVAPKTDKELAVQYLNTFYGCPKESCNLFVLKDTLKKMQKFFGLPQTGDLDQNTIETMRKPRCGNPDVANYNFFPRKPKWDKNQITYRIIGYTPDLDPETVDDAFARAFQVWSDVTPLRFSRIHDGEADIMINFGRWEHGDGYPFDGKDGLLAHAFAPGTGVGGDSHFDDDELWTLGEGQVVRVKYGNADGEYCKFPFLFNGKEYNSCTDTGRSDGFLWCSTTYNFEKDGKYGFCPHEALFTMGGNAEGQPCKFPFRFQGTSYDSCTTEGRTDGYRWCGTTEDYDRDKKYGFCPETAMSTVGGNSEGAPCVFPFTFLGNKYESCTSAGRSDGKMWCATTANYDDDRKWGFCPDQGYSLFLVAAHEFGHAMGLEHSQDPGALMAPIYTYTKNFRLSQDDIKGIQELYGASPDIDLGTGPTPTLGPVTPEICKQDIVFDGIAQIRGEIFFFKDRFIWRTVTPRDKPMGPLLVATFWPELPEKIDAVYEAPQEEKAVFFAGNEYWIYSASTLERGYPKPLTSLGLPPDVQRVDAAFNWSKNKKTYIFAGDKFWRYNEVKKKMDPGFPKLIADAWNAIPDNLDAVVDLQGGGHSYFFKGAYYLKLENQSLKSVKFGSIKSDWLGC
Answers are plain numbers, as −log10 of the molar value.

# count of solved cases: 3
• COc1ccc(Oc2ccc(S(=O)(=O)N[C@H](Cc3c[nH]c4ccccc34)C(=O)O)cc2)cc1 = 8.44
• COc1ccc(-c2ccc(S(=O)(=O)N[C@H](Cc3c[nH]c4ccccc34)C(=O)O)cc2)cc1 = 8.32
• O=C(Nc1ccc(S(=O)(=O)N[C@H](Cc2c[nH]c3ccccc23)C(=O)O)cc1)c1cccnc1F = 6.85

Annotate the compound `O=C(Nc1ccc(S(=O)(=O)N[C@H](Cc2c[nH]c3ccccc23)C(=O)O)cc1)c1ccc(F)nc1` with its measured pIC50. 8.15
